Could you please report measured AUC of dose-response viability curve for the items listed next?
# System: ACHN
# assay: AUC of dose-response viability curve, drug alone (arbitrary (AUC of normalised viability)); higher = less growth inhibition
# measurementConditions: treatment: drug alone; 5 days
Answer with a number only.

Return value of AUC of dose-response viability curve for input CC(C)(O)CC(=O)NCCn1ccc2ncnc(Nc3ccc(Oc4cccc(C(F)(F)F)c4)c(Cl)c3)c21 [TAK-285] , no commentary. 2.78

Return value of AUC of dose-response viability curve for input CCc1cnn2c(NCc3ccc[n+]([O-])c3)cc(N3CCCC[C@H]3CCO)nc12 , no commentary. 0.783

Return value of AUC of dose-response viability curve for input C=CC(=O)N1CCC[C@@H](n2nc(-c3ccc(Oc4ccccc4)cc3)c3c(N)ncnc32)C1 , no commentary. 2.53

Return value of AUC of dose-response viability curve for input COc1cccc(-c2cc(=O)c3ccccc3o2)c1N , no commentary. 3.35

Return value of AUC of dose-response viability curve for input CCS(=O)(=O)Nc1ccc2c(c1)/C(=C(/Nc1ccc(CN3CCCCC3)cc1)c1ccccc1)C(=O)N2 [Hesperadin] , no commentary. 1.63

Return value of AUC of dose-response viability curve for input CN1C(=O)C(Cc2c[nH]c3ccccc23)NC1=S (stereo not given) [Necrostatin-1] , no commentary. 2.99

Return value of AUC of dose-response viability curve for input COc1cccc2cc(-c3nc([C@H]4CC[C@H](C(=O)O)CC4)n4ncnc(N)c34)[nH]c12 [OSI-027] , no commentary. 2.85

Return value of AUC of dose-response viability curve for input CNC(=O)Nc1ccc(-c2nc(N3CC4CCC(C3)O4)c3cnn(C4CCC5(CC4)OCCO5)c3n2)cc1 , no commentary. 1.4

Return value of AUC of dose-response viability curve for input CCO.N#CC(=C(/N)Sc1ccccc1N)/C(C#N)=C(\N)Sc1ccccc1N [U0126-EtOH] , no commentary. 3.17

Return value of AUC of dose-response viability curve for input COc1ccc(C2=NC(c3ccc(Cl)cc3)C(c3ccc(Cl)cc3)N2C(=O)N2CCNC(=O)C2)c(OC(C)C)c1 (stereo not given) [Nutlin-3] , no commentary. 2.82

Return value of AUC of dose-response viability curve for input C=CC(=O)Nc1ccc2ncnc(Nc3ccc(OCc4cccc(F)c4)c(Cl)c3)c2c1.Cc1ccc(S(=O)(=O)O)cc1 [AST-1306] , no commentary. 2.9

Return value of AUC of dose-response viability curve for input CNC(=O)c1cc(COc2nnc(Nc3ccc(Cl)cc3)c3ccoc23)ccn1 [Telatinib (BAY 57-9352)] , no commentary. 3.42

Return value of AUC of dose-response viability curve for input C#Cc1cccc(Nc2ncnc3cc(OCCOC)c(OCCO)cc23)c1.Cl [OSI-420 (Desmethyl Erlotinib)] , no commentary. 2.38

Return value of AUC of dose-response viability curve for input Cc1cc2c(F)c(Oc3ncnn4cc(OC[C@@H](C)O)c(C)c34)ccc2[nH]1 , no commentary. 3.04

Return value of AUC of dose-response viability curve for input COC1=CC(c2cc3ccccc3[nH]2)=N/C1=C\c1[nH]c(C)cc1C.CS(=O)(=O)O [Obatoclax mesylate (GX15-070)] , no commentary. 1.41

Return value of AUC of dose-response viability curve for input CCc1cc2c(cc1N1CCC(N3CCOCC3)CC1)C(C)(C)c1[nH]c3cc(C#N)ccc3c1C2=O , no commentary. 3

Return value of AUC of dose-response viability curve for input Cn1cnc(-c2cc3nccc(Oc4ccc(NC(=S)NC(=O)Cc5ccccc5)cc4F)c3s2)c1 [MGCD-265] , no commentary. 3.43

Return value of AUC of dose-response viability curve for input C=CCc1cccc(/C=N/NC(=O)CN2CCN(Cc3ccccc3)CC2)c1O [PAC-1] , no commentary. 2.23

Return value of AUC of dose-response viability curve for input COc1cc2c(Nc3ccc(NC(=O)c4ccccc4)cc3)ncnc2cc1OCCCN1CCOCC1 , no commentary. 2.57

Return value of AUC of dose-response viability curve for input Cc1nc(N)sc1-c1ccnc(Nc2ccc(N3CCOCC3)cc2)n1 [CYC116] , no commentary. 2.45

Return value of AUC of dose-response viability curve for input NC1(Cc2ccc(Cl)cc2)CCN(c2ncnc3[nH]ccc23)CC1 , no commentary. 3.38

Return value of AUC of dose-response viability curve for input N#Cc1c(O)c2c(-c3ccc(-c4ccccc4O)cc3)csc2[nH]c1=O , no commentary. 3.45

Return value of AUC of dose-response viability curve for input CNC(=O)CN1CCC(Oc2cc3c(Nc4cccc(Cl)c4F)ncnc3cc2OC)CC1 [AZD8931] , no commentary. 2.08

Return value of AUC of dose-response viability curve for input C[C@@H]1COC(Nc2ccc3ncnc(Nc4ccc(OCc5nccs5)c(Cl)c4)c3c2)=N1 , no commentary. 2.8

Return value of AUC of dose-response viability curve for input C[C@H](NC(=O)/C(C#N)=C/c1cccc(Br)n1)c1ccccc1 [WP1066] , no commentary. 3.23

Return value of AUC of dose-response viability curve for input O=C1NC(=O)/C(=C/c2ccc3nccc(-c4ccncc4)c3c2)S1 , no commentary. 2.48

Return value of AUC of dose-response viability curve for input CCc1cc(Nc2nccc(-c3c(-c4ccc(OC)c(C(=O)Nc5c(F)cccc5F)c4)nc4ccccn34)n2)c(OC)cc1N1CCC(N2CCN(S(C)(=O)=O)CC2)CC1 , no commentary. 3.03

Return value of AUC of dose-response viability curve for input COC(=O)Nc1ccc(-c2nc(N3CCOCC3)c3cnn(C4CCN(Cc5cccnc5)CC4)c3n2)cc1 [WYE-687] , no commentary. 2.34

Return value of AUC of dose-response viability curve for input CS(=O)(=O)O.O=C(Nc1cccc(Cl)c1)Nc1ncc(CCNc2ncnc3ccsc23)s1 [SNS-314] , no commentary. 1.77

Return value of AUC of dose-response viability curve for input Cl.Cl.Clc1ccc(Nc2nnc(Cc3ccncc3)c3ccccc23)cc1 [Vatalanib dihydrochloride (PTK787)] , no commentary. 2.59
